Below is a list of entries, each paired with its recorded cloud p.t Tcl value.
test: Cloud point (TCl) determination; type: physicochemical; settings: 2500 ppm aqueous solution, heated ca. 5 °C/min up to 95 °C

Examples with answers:
CC(C)CNC(=O)CC(O)(CC(=O)NCC(C)C)C(=O)NCC(C)C: >95 °C
CC(C)CNC(=O)CC(CC(=O)NCC(C)C)(OC(=O)COCC(=O)OC(CC(=O)NCC(C)C)(CC(=O)NCC(C)C)C(=O)NCC(C)C)C(=O)NCC(C)C: 35 °C
CCCNC(=O)CC(CC(=O)NCCC)(OC(=O)COCC(=O)OC(CC(=O)NCCC)(CC(=O)NCCC)C(=O)NCCC)C(=O)NCCC: >95 °C

Here is the next item to consider.
Exam item: Could you tell me which cloud p.t Tcl is on file for CC(C)CNC(=O)CC(CC(=O)NCC(C)C)(OC(=O)CC(=O)OC(CC(=O)NCC(C)C)(CC(=O)NCC(C)C)C(=O)NCC(C)C)C(=O)NCC(C)C ?
Marked response: >95 °C
